Procedure summary: solvent given as SMILES
Conditions: in CC(C)=O
Parameter measured: absorption maximum (nm)
One number for each entry, in nm.

{"columns": ["Compound", "Unit of measure", "absorption maximum"],
 "data": [
  ["COc1ccc2c3c(cccc13)C(=O)c1ccccc1-2", "nm", 421.05],
  ["CN(c1ccccc1)c1ccc(/C=C2\\C(=O)c3ccccc3S2(=O)=O)cc1", "nm", 470],
  ["CCCCC[n+]1ccc(/C=C/c2ccc(N(C)C)c3ccccc23)c2ccccc21", "nm", 503],
  ["CN(C)c1ccc(/C=C/c2cc3ccccc3c[n+]2C)cc1", "nm", 425],
  ["CCN(CC)c1ccc2cc(-c3cc(SC)c(C#N)c(=O)o3)c(=O)oc2c1", "nm", 514],
  ["Cc1c2oc3c(C)c(N)cc(C(=O)NC4OC(=O)C(C(C)C)N(C)C(=O)CN(C)C(=O)C5CCCN5C(=O)C(C(C)C)NC4=O)c3nc-2c(C(=O)NC2OC(=O)C(C(C)C)N(C)C(=O)CN(C)C(=O)C3CCCN3C(=O)C(C(C)C)NC2=O)c(N)c1=O (stereo not drawn)", "nm", 522.69]
]}

// for each compound below, give its absorption maximum
1. CN(C)c1ccc(/C=C/C=C2\CCCC2=O)cc1
2. CCCCC1=Cc2c3ccc4cccc5ccc(c6cc(-c7ccc(N(c8ccccc8)c8ccccc8)cc7)n(c26)P1(=O)c1ccccc1)c3c45 (stereo not drawn)

416
429
